Reference source for all entries: patent US20050009894A1

Target: human KDR enzyme (Homo sapiens)
Construct: The cytoplasmic domain of human KDR enzyme is cloned in the form of a GST fusion; GST; made in house; host or cells: SF21 insect cells (baculovirus, pFastBac)
Sequence (P35968 786-1356 limits assumed): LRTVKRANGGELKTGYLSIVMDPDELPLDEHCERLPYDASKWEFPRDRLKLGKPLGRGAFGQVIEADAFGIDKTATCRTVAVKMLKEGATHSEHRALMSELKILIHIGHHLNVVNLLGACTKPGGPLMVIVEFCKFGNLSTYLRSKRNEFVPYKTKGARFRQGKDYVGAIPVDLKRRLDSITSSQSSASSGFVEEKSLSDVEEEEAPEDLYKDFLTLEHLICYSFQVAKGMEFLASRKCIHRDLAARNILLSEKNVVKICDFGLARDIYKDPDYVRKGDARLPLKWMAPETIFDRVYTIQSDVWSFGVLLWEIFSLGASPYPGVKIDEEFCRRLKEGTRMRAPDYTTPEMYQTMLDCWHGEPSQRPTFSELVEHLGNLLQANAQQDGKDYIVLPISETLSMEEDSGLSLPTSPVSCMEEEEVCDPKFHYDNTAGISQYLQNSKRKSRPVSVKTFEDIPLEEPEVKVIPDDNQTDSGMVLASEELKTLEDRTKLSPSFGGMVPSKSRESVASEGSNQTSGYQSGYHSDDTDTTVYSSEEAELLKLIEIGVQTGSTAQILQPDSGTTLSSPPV
Test: Phosphorylation of the substrate PLCγ by the enzyme KDR in vitro (flashplate technique)
Assay type: biochemical
Settings: Table VII, degrees of activity by IC50 range; read-out: Activity
pIC50: −log10 of the molar value.
Property: pIC50; scope: individual molecules
endpoint_name: pIC50

{"columns": ["structure_smiles", "endpoint_name", "result_value"],
 "data": [
  ["O=C(NCc1c(F)cccc1F)c1ccc2[nH]c(-c3n[nH]c4ccccc34)nc2c1", "pIC50", "5.52 to 6.52"],
  ["CCSc1ccc(-c2ccc3nc(-c4[nH]nc5ccccc45)[nH]c3c2)cc1", "pIC50", "< 5.52"],
  ["O=C(NCc1cccc(OC(F)(F)F)c1)c1ccc2[nH]c(-c3n[nH]c4ccccc34)nc2c1", "pIC50", "5.52 to 6.52"],
  ["Cc1ccc(-c2ccc3nc(-c4[nH]nc5ccccc45)[nH]c3c2)cc1", "pIC50", "< 5.52"],
  ["O=C(NCc1ccccc1OC(F)(F)F)c1ccc2[nH]c(-c3n[nH]c4ccccc34)nc2c1", "pIC50", "5.52 to 6.52"],
  ["Oc1ccc(-c2ccc3nc(-c4[nH]nc5ccccc45)[nH]c3c2)cc1", "pIC50", "5.52 to 6.52"],
  ["CC(=O)c1ccc(-c2ccc3nc(-c4[nH]nc5ccccc45)[nH]c3c2)cc1", "pIC50", "< 5.52"],
  ["O=C(NCc1ccccc1)c1cccc2nc(-c3n[nH]c4ccccc34)[nH]c12", "pIC50", "< 5.52"],
  ["c1ccc2c(-c3nc4ccc(-c5ccsc5)cc4[nH]3)[nH]nc2c1", "pIC50", "5.52 to 6.52"],
  ["O=C(NCc1ccoc1)c1ccc2[nH]c(-c3n[nH]c4ccccc34)nc2c1", "pIC50", "5.52 to 6.52"],
  ["O=C(NCc1csc2ccccc12)c1cccc2nc(-c3n[nH]c4ccccc34)[nH]c12", "pIC50", "< 5.52"],
  ["Clc1ccc(-c2ccc3nc(-c4[nH]nc5ccccc45)[nH]c3c2)cc1", "pIC50", "< 5.52"]
]}

* * *

Biological target: human KDR enzyme (Homo sapiens)
Construct: The cytoplasmic domain of human KDR enzyme is cloned in the form of a GST fusion; GST; made in house; host or cells: SF21 insect cells (baculovirus, pFastBac)
Assay: Phosphorylation of the substrate PLCγ by the enzyme KDR in vitro (flashplate technique)
Type: biochemical
Conditions: Table VII, degrees of activity by IC50 range; read-out: Activity
pIC50: −log10 of the molar value.
Property: pIC50; scope: individual compounds
endpoint_name: pIC50

{"columns": ["structure_smiles", "endpoint_name", "result_value"],
 "data": [
  ["O=C(Nc1ccccc1)c1cccc2nc(-c3n[nH]c4ccccc34)[nH]c12", "pIC50", "5.52 to 6.52"],
  ["c1ccc2[nH]c(-c3cc(OCCN4CCOCC4)n[nH]3)nc2c1", "pIC50", "< 5.52"],
  ["c1ccc(COc2cccc(-c3ccc4nc(-c5[nH]nc6ccccc56)[nH]c4c3)c2)cc1", "pIC50", "< 5.52"],
  ["N#Cc1ccc(COc2cc(-c3nc4ccccc4[nH]3)[nH]n2)cc1", "pIC50", "< 5.52"],
  ["Cc1cc(C)cc(CNC(=O)c2ccc3[nH]c(-c4n[nH]c5ccccc45)nc3c2)c1", "pIC50", "5.52 to 6.52"],
  ["c1ccc(-c2ccc(COc3cc(-c4nc5ccccc5[nH]4)[nH]n3)cc2)cc1", "pIC50", "5.52 to 6.52"],
  ["Cc1cc(Cl)cc(F)c1CNC(=O)c1ccc2[nH]c(-c3n[nH]c4ccccc34)nc2c1", "pIC50", "> 6.52"],
  ["O=C(NCc1ccc(F)cc1)c1ccc2[nH]c(-c3n[nH]c4ccccc34)nc2c1", "pIC50", "5.52 to 6.52"]
]}
